- experimental.target: Human Calpain 2/NS1 (Homo sapiens, UniProt P17655)
- Sequence (P17655 whole entry): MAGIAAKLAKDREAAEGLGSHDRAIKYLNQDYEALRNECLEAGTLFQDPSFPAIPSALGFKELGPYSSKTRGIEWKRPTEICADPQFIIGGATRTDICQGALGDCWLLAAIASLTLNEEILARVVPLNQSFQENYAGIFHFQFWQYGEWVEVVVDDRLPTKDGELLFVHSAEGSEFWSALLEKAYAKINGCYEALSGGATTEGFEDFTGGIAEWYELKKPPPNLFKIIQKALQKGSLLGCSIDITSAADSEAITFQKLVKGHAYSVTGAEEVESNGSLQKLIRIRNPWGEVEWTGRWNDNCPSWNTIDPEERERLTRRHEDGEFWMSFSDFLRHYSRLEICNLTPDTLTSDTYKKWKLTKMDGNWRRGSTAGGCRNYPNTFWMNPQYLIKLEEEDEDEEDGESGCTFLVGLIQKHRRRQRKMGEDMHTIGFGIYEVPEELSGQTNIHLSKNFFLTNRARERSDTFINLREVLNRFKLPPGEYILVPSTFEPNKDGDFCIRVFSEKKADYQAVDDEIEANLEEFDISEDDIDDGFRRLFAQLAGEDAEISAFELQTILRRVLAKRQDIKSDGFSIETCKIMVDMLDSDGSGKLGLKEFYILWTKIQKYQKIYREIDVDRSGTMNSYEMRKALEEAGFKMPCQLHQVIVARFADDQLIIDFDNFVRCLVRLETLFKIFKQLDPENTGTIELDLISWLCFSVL
- Sequence (P04632 whole entry partner): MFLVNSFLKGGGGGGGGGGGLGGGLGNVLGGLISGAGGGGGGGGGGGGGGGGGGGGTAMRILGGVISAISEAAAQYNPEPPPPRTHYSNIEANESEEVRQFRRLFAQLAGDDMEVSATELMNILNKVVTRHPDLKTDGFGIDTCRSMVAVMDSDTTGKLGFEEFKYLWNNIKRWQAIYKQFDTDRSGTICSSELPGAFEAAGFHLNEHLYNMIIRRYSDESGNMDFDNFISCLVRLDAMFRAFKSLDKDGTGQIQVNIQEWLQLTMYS
- test.method.notes: Calpain inhibition continuous fluorescence (FRET) assay, Human Calpain 2/NS1
- Assay type: biochemical
- condition.description: read-out: Human Calpain 2/NS1 IC50
Exercise: for every item that follows, state its recorded IC50.

Query :: Output measured IC50 for this item: Cn1cc(C(=O)NC(Cc2ccccc2)C(=O)C(N)=O)c(C(=O)c2ccccc2)n1 (centres unmarked)
Result :: 3 to 10 µM

Query :: Output measured IC50 for this item: Cc1csc(-c2nn(C)cc2C(=O)NC(Cc2ccccc2)C(=O)C(N)=O)c1 (centres unmarked)
Result :: < 3 µM

Query :: Output measured IC50 for this item: NC(=O)C(=O)C(Cc1ccccc1)NC(=O)C1CCCN1c1ccccc1 (centres unmarked)
Result :: < 3 µM

Query :: Output measured IC50 for this item: NC(=O)C(=O)C(Cc1ccccc1)NC(=O)c1cn(C(F)F)nc1-c1cccc2c1OC(F)(F)O2 (centres unmarked)
Result :: < 3 µM

Query :: Output measured IC50 for this item: COc1cccc(-c2nn(C)cc2C(=O)NC(Cc2ccccc2)C(=O)C(N)=O)n1 (centres unmarked)
Result :: < 3 µM

Query :: Output measured IC50 for this item: Cn1cc(C(=O)N[C@@H](Cc2ccccc2)C(=O)C(N)=O)c(-c2cnccn2)n1
Result :: < 3 µM

Query :: Output measured IC50 for this item: Cn1cc(C(=O)NC(Cc2ccccc2)C(=O)C(N)=O)c(-c2n[nH]c3ccccc23)n1 (centres unmarked)
Result :: 3 to 10 µM

Query :: Output measured IC50 for this item: Cc1cc(C(=O)NC(Cc2ccccc2)C(=O)C(N)=O)c(-c2nc3ccccc3[nH]2)s1 (centres unmarked)
Result :: < 3 µM

###

Exercise: for every item that follows, state its recorded IC50.
- Test system: Calpain activity in SH-SY5Y cells
- test.method.notes: SH-SY5Y + AMC fluorescence assay (Suc-LLVY-AMC substrate)
- Type: cell-based
- condition.description: read-out: SH-SY5Y + AMC IC50

Query :: Output measured IC50 for this item: CCCC[C@H](NC(=O)c1cn(C)nc1-c1ccccc1)C(=O)C(N)=O [Compound 419]
Result :: > 25 µM

Query :: Output measured IC50 for this item: NC(=O)C(=O)C(Cc1ccccc1)NC(=O)c1nsnc1-c1ccccc1F (centres unmarked) [Compound 327]
Result :: < 10 µM

Query :: Output measured IC50 for this item: Cc1nc(-c2ccccc2F)c(C(=O)NC(C=O)Cc2ccccc2)o1 (centres unmarked) [Compound 402]
Result :: > 25 µM

Query :: Output measured IC50 for this item: NC(=O)C(=O)C(Cc1ccccc1)NC(=O)c1nsnc1-c1cccc2c1OCO2 (centres unmarked) [Compound 367]
Result :: < 10 µM

Query :: Output measured IC50 for this item: CCn1cc(C(=O)NC(Cc2ccccc2)C(=O)C(N)=O)c(-c2ccc(F)cc2)n1 (centres unmarked) [Compound 471]
Result :: 10 to 25 µM

Query :: Output measured IC50 for this item: Cc1c(C(=O)NC(Cc2ccccc2)C(=O)C(N)=O)c(-c2ccccc2)nn1C (centres unmarked) [Compound 583]
Result :: > 25 µM

Query :: Output measured IC50 for this item: CNC(=O)CNC(=O)C(=O)[C@H](Cc1ccccc1)NC(=O)c1cn(C)nc1-c1ccccc1 [Compound 336]
Result :: < 10 µM

Query :: Output measured IC50 for this item: NC(=O)C(=O)C(Cc1ccccc1)NC(=O)c1cn(C(F)F)nc1-c1ccnc2ccccc12 (centres unmarked) [Compound 596]
Result :: < 10 µM

Query :: Output measured IC50 for this item: Cn1cc(C(=O)NC(Cc2ccccc2)C(=O)C(N)=O)c(-c2ccnn2C)n1 (centres unmarked) [Compound 568]
Result :: < 10 µM

Query :: Output measured IC50 for this item: Cn1cc(C(=O)NC(Cc2ccccc2)C(=O)C(N)=O)c(-c2ccc3ncccc3c2)n1 (centres unmarked) [Compound 593]
Result :: > 25 µM

Query :: Output measured IC50 for this item: NC(=O)C(=O)C(Cc1ccccc1)NC(=O)c1cn(C(F)F)nc1-c1cncc(F)c1 (centres unmarked) [Compound 586]
Result :: 10 to 25 µM

Query :: Output measured IC50 for this item: Cn1cc(C(=O)NC(Cc2ccccc2)C(=O)C(N)=O)c(-c2ccc3ccccc3n2)n1 (centres unmarked) [Compound 587]
Result :: > 25 µM

Query :: Output measured IC50 for this item: NC(=O)C(=O)C(Cc1ccccc1)NC(=O)C1CCCN1c1ccccc1 (centres unmarked) [compound 541]
Result :: > 25 µM

Query :: Output measured IC50 for this item: NC(=O)C(=O)C(Cc1ccccc1)NC(=O)c1cn(C2CC2)nc1-c1ccc(C(F)(F)F)nc1 (centres unmarked) [Compound 414]
Result :: > 25 µM

Query :: Output measured IC50 for this item: Cc1cc(C(=O)N[C@@H](Cc2ccccc2)C(=O)C(N)=O)nn1-c1ccnc(Cl)n1 [Compound 435]
Result :: < 10 µM

Query :: Output measured IC50 for this item: NC(=O)C(=O)C(Cc1ccccc1)NC(=O)c1cc(Cl)nn1-c1ncccn1 (centres unmarked) [Compound 350]
Result :: < 10 µM

Query :: Output measured IC50 for this item: CCn1cc(C(=O)NC(Cc2ccccc2)C(=O)C(N)=O)c(-c2cccc(F)c2)n1 (centres unmarked) [Compound 470]
Result :: < 10 µM
